Where these numbers come from: patent US10214507B2

- System: stable U20S reporter cells harboring Per2-dLuc
- Method Description: Per2 assay for evaluating the potency of test compounds (circadian luciferase reporter)
- Format: cell-based
- Experimental Parameters: amplitude of Per2-dLuc luminescence vs log concentration
- Description: Compounds were screened by using a high-throughput circadian assay system as previously described in Zhang, E. E. et al. Cell, 2009, 139, 199-210. […] Plates are sealed, shaken briefly, and gene expression was monitored by measuring luminescence (Tecan® Infinite M200 or Tecan® Infinite M200 Pro) continuously for a minimum of 3 days at 35° C. […] Amp data are then plotted against the logarithm compound concentration (M) and analyzed by nonlinear regression analysis to determine the EC50.
// class assignment uses EC50 with these ranges: low = under 400 nM, medium = from 400 nM up to 800 nM, high = 800 nM and over

Compound	Cat
CC(C)C1CCCN(CC(C)(O)Cn2c3ccc(F)cc3c3cc(F)ccc32)C1=O (stereo not shown)	high
CC(O)(CN1CCCC(C2CCCCC2)C1=O)Cn1c2ccc(F)cc2c2cc(F)ccc21 (stereo not shown)	high
C[C@H]1CN(C[C@H](O)Cn2c3ccc(F)cc3c3cc(F)ccc32)C(=O)N1	high
CC(O)(CN1CCC(F)(F)C1=O)Cn1c2ccc(F)cc2c2cc(F)ccc21 (stereo not shown)	high
O=C1N(CC(O)Cn2c3ccccc3c3ccccc32)CCN1C1CC1 (stereo not shown)	low
O=C1N(CC(O)Cn2c3ccc(F)cc3c3cc(F)ccc32)CCCN1C1CCCCC1 (stereo not shown)	low
CCN1CCCN(CC(C)(O)Cn2c3ccc(F)cc3c3cc(F)ccc32)C1=O (stereo not shown)	low
C[C@](O)(CN1CC[C@H](F)C1=O)Cn1c2ccccc2c2ccccc21	low
C[C@](O)(CN1CC[C@@H](F)C1=O)Cn1c2ccccc2c2ccccc21	medium
CCC1CCCN(CC(O)Cn2c3ccc(F)cc3c3cc(F)ccc32)C1=O (stereo not shown)	low
CC(C)C1CC(=O)N(CC(O)Cn2c3ccc(F)cc3c3cc(F)ccc32)C1 (stereo not shown)	low
O=C1COCCN1CC(O)Cn1c2ccc(F)cc2c2cc(F)ccc21 (stereo not shown)	medium
C[C@H]1CCN(C[C@H](O)Cn2c3ccccc3c3ccccc32)C1=O	low
O=C1C(c2ccccc2)CCCN1CC(O)Cn1c2ccc(F)cc2c2cc(F)ccc21 (stereo not shown)	medium
CC1CN(C)C(=O)N(CC(O)Cn2c3ccc(F)cc3c3cc(F)ccc32)C1 (stereo not shown)	high
C[C@H]1CCN(C[C@H](O)Cn2c3ccc(F)cc3c3cc(F)ccc32)C1=O	medium
C[C@@H]1CN(C[C@H](O)Cn2c3ccc(F)cc3c3cc(F)ccc32)C(=O)N1	high
O=C1N(CC(O)Cn2c3ccc(F)cc3c3cc(F)ccc32)CCCN1C1CCCC1 (stereo not shown)	medium
CC(C)N1CCCN(CC(C)(O)Cn2c3ccc(F)cc3c3cc(F)ccc32)C1=O (stereo not shown)	high
